# test.target: N-NTD (SARS-CoV-2 (Wuhan-Hu-1), UniProt P0DTC9 46-174)
# test.details: fluorescence anisotropy; 1 mM Mg2+; 10 mM Tris-HCl pH 7.4, 150 mM NaCl, 1 mM MgCl2; […]; BLI with 0.05% Tween-20; […]
test.readout: Kd (nM)
One number for each entry, in nM.

For reference, reported Kd for TCGGACATCGGATTGTCTGA (ssDNA) [A58-20] stands at 101
